conditions: buffer; pH 7.4; 200.0 µM
Assay readout: solubility kinetic

- Molecule: "O=C(CNC(=O)c1ccccc1)Oc1cccc(Cl)c1"
  Measurement: "> 43.5 µg/mL"
- Molecule: "Cc1ccc(C(=O)O/N=C(\\N)c2ccccn2)c(C)c1"
  Measurement: "> 40.4 µg/mL"
- Molecule: "O=C1NC2(CCCCCC2)C(=O)N1Cc1ccccc1"
  Measurement: "> 40.9 µg/mL"
- Molecule: "CSc1ncc(CN2CCN(C(C)C)C(CCO)C2)cn1 (configuration not stated)"
  Measurement: "> 46.6 µg/mL"
- Molecule: "Fc1ccc2nc(N3CCOCC3)sc2c1"
  Measurement: "> 35.7 µg/mL"
- Molecule: "NC(=O)c1ccccc1OC1CCC1"
  Measurement: "> 28.7 µg/mL"

I'd like to know its solubility kinetic. The molecule in question is `O=C(c1ccc2ccccc2c1)N1CCCCC1` > 35.9 µg/mL

Look up solubility kinetic for this molecule: CC1(C)C2CCC1(C)C([NH2+]c1ccccc1)C2.[Cl-] (configuration not stated) < 0.6 µg/mL

What measured solubility kinetic goes with `CCCC(=O)Nc1c(-c2cccc(OC)c2)c(=O)c2ccccc2n1C` ? > 52.6 µg/mL

Name the reported solubility kinetic value associated with the molecule `Cc1ccc(S(=O)(=O)N2CCc3ccccc3C2)cc1C` < 0.6 µg/mL

Field request: solubility kinetic | item: CC(c1ccccc1)N1CC(C(=O)Nc2nccs2)CC1=O (configuration not stated) > 47.3 µg/mL

Recorded solubility kinetic for `Cc1nc2ccc([N+](=O)[O-])cc2nc1C` , please? > 30.5 µg/mL

The measured values listed here are drawn from PubChem BioAssay AID1996.
